Test system: Vero E6 infected with SARS-CoV-2
Test: SARS-CoV-2 infection rate relative to infected DMSO; higher = more infection, active = 60 or less
Details: 24 h
As shown below, each of these compounds has a reported SARS-CoV-2 infection rate value.
Field format: number, assumed %, no unit text.

{"columns": ["compound", "quantityUnit", "SARS-CoV-2 infection rate"],
 "data": [
  ["C[C@H](N/C(=N/C#N)Nc1cccc2ncccc12)c1ccccc1 (10 µM)", "%", 98.5]
]}

Now let's try a different one.
// query // fetch SARS-CoV-2 infection rate; item: OCCNC1CCCc2c1[nH]c1ccc(-c3ccccc3)cc21 (stereo not drawn) [casin] (0.833333 µM) ; system: Vero E6 infected with SARS-CoV-2
// result 102
